# method notes: Metabolic stability in human hepatocytes assessed as intrinsic clearance measured per 10^6 viable cells/ml at 1 uM measured upto 120 mins by LC-MS/MS analysis
# Assay type: ADME, cell-based, Hepatocyte
# condition context: read-out: CLH
property measured: hepatocyte CLint at 1 µM (µL/min/1e6 cells)
Respond numerically; units are µL/min/1e6 cells and should not be typed.

Entry CC1(CNC(=O)[C@H]2[C@@H]3CC[C@@H](C3)[C@H]2NC(=O)c2cc(O[C@H]3CC[C@@](C)(C(=O)O)CC3)ccn2)CCC1 ; hepatocyte CLint at 1 µM = 2.3

Entry CC1(CNC(=O)[C@H]2C3CCC(C3)[C@H]2NC(=O)c2cc(O[C@H]3CC[C@@](C)(C(=O)O)CC3)c(C#N)cc2F)CCC1 (stereo partly drawn) ; hepatocyte CLint at 1 µM = 7.9

Entry COc1cc(F)c(O[C@H]2CC[C@@](C)(C(=O)O)CC2)cc1C(=O)N[C@@H]1[C@H]2CC[C@H](C2)[C@@H]1C(=O)NCC(C)(C)C ; hepatocyte CLint at 1 µM = 2.7

Entry COc1c(C#N)cc(O[C@H]2CC[C@@](C)(C(=O)O)CC2)cc1C(=O)N[C@@H]1[C@H]2CC[C@H](C2)[C@@H]1C(=O)NCC1(C)CCC1 ; hepatocyte CLint at 1 µM = 11

Entry COc1cc(C(F)F)c(O[C@H]2CC[C@@](C)(C(=O)O)CC2)cc1C(=O)N[C@@H]1[C@H]2CC[C@H](C2)[C@@H]1C(=O)NCC1(C)CCC1 ; hepatocyte CLint at 1 µM = 5.1

Entry COc1ccc(O[C@H]2CC[C@@](C)(C(=O)O)CC2)cc1C(=O)N[C@@H]1[C@H]2CC[C@H](C2)[C@@H]1C(=O)NCC1(C)CCC1 ; hepatocyte CLint at 1 µM = 6.1

Entry COc1c(Cl)cc(O[C@H]2CC[C@@](C)(C(=O)O)CC2)cc1C(=O)N[C@@H]1[C@H]2CC[C@H](C2)[C@@H]1C(=O)NCC1(C)CCC1 ; hepatocyte CLint at 1 µM = 13

====

# method notes: Metabolic stability in human hepatocytes assessed as intrinsic clearance measured per 10^6 viable cells/ml at 1 uM measured upto 120 mins by LC-MS/MS analysis
# Assay type: ADME, cell-based, Hepatocyte
# condition context: read-out: CLH
Recorded hepatocyte CLint at 1 µM by entry
Respond numerically; units are µL/min/1e6 cells and should not be typed.

CC1(CNC(=O)[C@H]2[C@@H]3CC[C@@H](C3)[C@H]2NC(=O)c2cc(O[C@H]3CC[C@@](C)(C(=O)O)CC3)c(F)cc2F)CCC1 | 6.7

Then there is this compound:
Entry CC1(CNC(=O)[C@H]2[C@@H]3CC[C@@H](C3)[C@H]2NC(=O)c2ccc(F)c(O[C@H]3CC[C@@](C)(C(=O)O)CC3)c2)CCC1 ; hepatocyte CLint at 1 µM = 8.4

====

# method notes: Metabolic stability in human liver microsomes assessed as intrinsic clearance at 1 uM measured upto 30 mins by LC-MS/MS analysis
# Format: ADME, Microsome
# condition context: read-out: CLH
property measured: microsomal CLint at 1 µM (µL/min/mg)
Respond numerically; units are µL/min/mg and should not be typed.

COc1ccc(O[C@H]2CC[C@@](C)(C(=O)O)CC2)cc1C(=O)N[C@@H]1[C@H]2CC[C@H](C2)[C@@H]1C(=O)NCC1(C)CCC1 | 36

Entry COc1cc(F)c(O[C@H]2CC[C@@](C)(C(=O)O)CC2)cc1C(=O)N[C@@H]1[C@H]2CC[C@H](C2)[C@@H]1C(=O)Nc1ccc(F)c(S(F)(F)(F)(F)F)c1 ; microsomal CLint at 1 µM = 61

Entry COc1c(C)cc(O[C@H]2CC[C@@](C)(C(=O)O)CC2)cc1C(=O)N[C@@H]1[C@H]2CC[C@H](C2)[C@@H]1C(=O)NCC1(C)CCC1 ; microsomal CLint at 1 µM = 7

====

# method notes: Metabolic stability in human hepatocytes assessed as unbound intrinsic clearance measured per 10^6 viable cells/ml at 1 uM measured upto 120 mins by LC-MS/MS analysis
# Type: ADME, cell-based, Hepatocyte
# condition context: 2 h
Recorded CL free by entry
Respond numerically; units are µL/min and should not be typed.

Worked set:
COc1cc(C2CC2)c(O[C@H]2CC[C@@](C)(C(=O)O)CC2)cc1C(=O)N[C@@H]1[C@H]2CC[C@H](C2)[C@@H]1C(=O)NCC1(C)CCC1 | 13
COc1cc(F)c(O[C@H]2C[C@@](C)(C(=O)O)C2)cc1C(=O)N[C@@H]1[C@H]2CC[C@H](C2)[C@@H]1C(=O)NCC1(C)CCC1 | 5.4
CC1(CNC(=O)[C@H]2C3CCC(C3)[C@H]2NC(=O)c2cc(O[C@H]3CC[C@@](C)(C(=O)O)CC3)c(C#N)cc2F)CCC1 (some centres not stated) | 16
Cc1cc(F)c(O[C@H]2CC[C@@](C)(C(=O)O)CC2)cc1C(=O)N[C@@H]1[C@H]2CC[C@H](C2)[C@@H]1C(=O)NCC1(C)CCC1 | 22
COc1c(F)cc(O[C@H]2CC[C@@](C)(C(=O)O)CC2)cc1C(=O)N[C@@H]1[C@H]2CC[C@H](C2)[C@@H]1C(=O)NCC1(C)CCC1 | 9.5

Entry CC1(CNC(=O)[C@H]2[C@@H]3CC[C@@H](C3)[C@H]2NC(=O)c2cc(O[C@H]3CC[C@@](C)(C(=O)O)CC3)c(F)cc2OC(F)F)CCC1 ; CL free = 52

Entry COc1cc(F)c(O[C@H]2CC[C@@](C)(c3nnn[nH]3)CC2)cc1C(=O)N[C@@H]1[C@H]2CC[C@H](C2)[C@@H]1C(=O)NCC1(C)CCC1 ; CL free = 13

Entry CC1(CNC(=O)[C@H]2[C@@H]3CC[C@@H](C3)[C@H]2NC(=O)c2cc(O[C@H]3CC[C@@](C)(C(=O)O)CC3)c(C#N)cn2)CCC1 ; CL free = 4.2

Entry COc1cc(F)c(C[C@H]2CC[C@@](C)(C(=O)O)CC2)cc1C(=O)N[C@@H]1[C@H]2CC[C@H](C2)[C@@H]1C(=O)NCC1(C)CCC1 ; CL free = 43

Entry COc1cc(S(C)(=O)=O)c(O[C@H]2CC[C@@](C)(C(=O)O)CC2)cc1C(=O)N[C@@H]1[C@H]2CC[C@H](C2)[C@@H]1C(=O)NCC1(C)CCC1 ; CL free = 1.7

Entry COc1c(C)cc(O[C@H]2CC[C@@](C)(C(=O)O)CC2)cc1C(=O)N[C@@H]1[C@H]2CC[C@H](C2)[C@@H]1C(=O)NCC1(C)CCC1 ; CL free = 8.9

Entry COc1c(C#N)cc(O[C@H]2CC[C@@](C)(C(=O)O)CC2)cc1C(=O)N[C@@H]1[C@H]2CC[C@H](C2)[C@@H]1C(=O)NCC1(C)CCC1 ; CL free = 16

====

# target entity: Relaxin receptor 1 (Homo sapiens)
# Sequence (Q9HBX9 whole entry): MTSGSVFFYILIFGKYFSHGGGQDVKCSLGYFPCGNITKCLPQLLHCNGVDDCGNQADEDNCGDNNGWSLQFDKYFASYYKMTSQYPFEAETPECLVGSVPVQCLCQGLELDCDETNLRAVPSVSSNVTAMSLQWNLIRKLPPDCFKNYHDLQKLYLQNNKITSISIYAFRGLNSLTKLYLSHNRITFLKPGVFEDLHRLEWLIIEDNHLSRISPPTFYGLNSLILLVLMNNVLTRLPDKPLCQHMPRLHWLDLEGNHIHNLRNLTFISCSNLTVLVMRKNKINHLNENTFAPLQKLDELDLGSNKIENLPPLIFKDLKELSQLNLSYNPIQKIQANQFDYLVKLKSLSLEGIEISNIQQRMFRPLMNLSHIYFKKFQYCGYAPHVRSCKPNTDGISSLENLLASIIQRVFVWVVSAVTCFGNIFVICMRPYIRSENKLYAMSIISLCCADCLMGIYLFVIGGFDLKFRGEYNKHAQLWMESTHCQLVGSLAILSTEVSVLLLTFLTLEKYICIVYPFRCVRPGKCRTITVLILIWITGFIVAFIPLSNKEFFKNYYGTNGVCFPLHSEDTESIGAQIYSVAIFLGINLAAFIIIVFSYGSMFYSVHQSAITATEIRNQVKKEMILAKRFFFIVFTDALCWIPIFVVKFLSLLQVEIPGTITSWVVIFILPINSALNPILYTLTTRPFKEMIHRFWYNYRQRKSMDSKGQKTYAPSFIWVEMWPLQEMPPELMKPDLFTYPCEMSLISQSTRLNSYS
# method notes: Agonist activity at human RXFP1 expressed in HEK293 cells co-expressing G-alphaz assessed as cAMP production measured after 15 mins by BRET sensor assay
property measured: pEC50
The quantity pEC50 is defined as the negative base-10 logarithm of the molar concentration.

Entry COc1cc(F)c(O[C@H]2CC[C@@](C)(C(=O)O)CC2)cc1C(=O)N[C@@H]1[C@H]2CC[C@H](C2)[C@@H]1C(=O)Nc1ccc(F)c(S(F)(F)(F)(F)F)c1 ; pEC50 = 8.60

====

# target entity: Relaxin receptor 1 (Mus musculus, UniProt Q6R6I7)
# Sequence (Q6R6I7 whole entry): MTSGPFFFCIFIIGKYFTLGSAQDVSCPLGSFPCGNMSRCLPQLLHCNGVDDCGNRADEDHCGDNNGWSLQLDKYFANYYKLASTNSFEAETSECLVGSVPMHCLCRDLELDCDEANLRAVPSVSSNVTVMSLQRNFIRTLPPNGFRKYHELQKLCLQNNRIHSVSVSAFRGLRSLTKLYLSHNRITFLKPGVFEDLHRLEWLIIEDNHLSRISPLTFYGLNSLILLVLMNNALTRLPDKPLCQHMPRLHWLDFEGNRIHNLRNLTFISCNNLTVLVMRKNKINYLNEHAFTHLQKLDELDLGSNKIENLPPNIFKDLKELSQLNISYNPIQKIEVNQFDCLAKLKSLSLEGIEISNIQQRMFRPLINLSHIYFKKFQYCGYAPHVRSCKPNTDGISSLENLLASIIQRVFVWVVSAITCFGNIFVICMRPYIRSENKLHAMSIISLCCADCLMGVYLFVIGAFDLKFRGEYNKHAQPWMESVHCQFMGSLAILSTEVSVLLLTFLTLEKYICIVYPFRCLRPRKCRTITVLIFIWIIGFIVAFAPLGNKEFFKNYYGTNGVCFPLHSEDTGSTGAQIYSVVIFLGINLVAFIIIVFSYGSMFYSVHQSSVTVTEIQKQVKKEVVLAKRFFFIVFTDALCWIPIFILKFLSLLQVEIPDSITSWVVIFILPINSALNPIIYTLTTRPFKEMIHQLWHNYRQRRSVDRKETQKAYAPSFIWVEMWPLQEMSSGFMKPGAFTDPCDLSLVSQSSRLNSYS
property measured: pEC50
The quantity pEC50 is defined as the negative base-10 logarithm of the molar concentration.

The molecule COc1cc(C#N)c(O[C@H]2CC[C@@](C)(C(=O)O)CC2)cc1C(=O)N[C@@H]1[C@H]2CC[C@H](C2)[C@@H]1C(=O)NCC(C)(C)C , tested on Relaxin receptor 1 (Mus musculus, UniProt Q6R6I7), showed pEC50 of 5.90

====

# method notes: Octanol/water partition coefficient, logD of the compound at pH 7.4 by shake flask method
# Format: physicochemical
property measured: logD

Worked set:
CC1(CNC(=O)[C@H]2[C@@H]3CC[C@@H](C3)[C@H]2NC(=O)c2cc(O[C@H]3CC[C@@](C)(C(=O)O)CC3)c(F)cc2F)CCC1 | 2.9
COc1cc(F)c(O[C@H]2CC[C@@](C)(C(=O)O)CC2)cc1C(=O)N[C@@H]1[C@H]2CC[C@H](C2)[C@@H]1C(=O)N[C@H](C)C(C)(C)C | 3.4

Then there is this molecule:
Entry COc1c(Cl)cc(O[C@H]2CC[C@@](C)(C(=O)O)CC2)cc1C(=O)N[C@@H]1[C@H]2CC[C@H](C2)[C@@H]1C(=O)NCC1(C)CCC1 ; logD = 3.3

====

# method notes: Metabolic stability in human liver microsomes assessed as intrinsic clearance at 1 uM measured upto 30 mins by LC-MS/MS analysis
# Format: ADME, Microsome
# condition context: read-out: CLH
Could you mark each record Condition met if its microsomal CLint at 1 µM falls strictly under 20 µL/min/mg, and Condition not met if it equals or exceeds it?

Reference set (5 entries):
COc1cc(C2CC2)c(O[C@H]2CC[C@@](C)(C(=O)O)CC2)cc1C(=O)N[C@@H]1[C@H]2CC[C@H](C2)[C@@H]1C(=O)NCC1(C)CCC1 | Condition not met
CCc1cc(OC)c(C(=O)N[C@@H]2[C@H]3CC[C@H](C3)[C@@H]2C(=O)NCC2(C)CCC2)cc1O[C@H]1CC[C@@](C)(C(=O)O)CC1 | Condition not met
CC1(CNC(=O)[C@H]2[C@@H]3CC[C@@H](C3)[C@H]2NC(=O)c2cc(O[C@H]3CC[C@@](C)(C(=O)O)CC3)c(F)cc2OC(F)F)CCC1 | Condition not met
COc1cc(F)c(O[C@H]2CC[C@@](C)(c3nnn[nH]3)CC2)cc1C(=O)N[C@@H]1[C@H]2CC[C@H](C2)[C@@H]1C(=O)NCC1(C)CCC1 | Condition met
COc1c(Cl)cc(O[C@H]2CC[C@@](C)(C(=O)O)CC2)cc1C(=O)N[C@@H]1[C@H]2CC[C@H](C2)[C@@H]1C(=O)NCC1(C)CCC1 | Condition not met

Moving on to another compound below.
(Q) microsomal CLint at 1 µM strictly < 20 µL/min/mg for this compound? CC1(CNC(=O)[C@H]2[C@@H]3CC[C@@H](C3)[C@H]2NC(=O)c2cc(O[C@H]3CC[C@@](C)(C(=O)O)CC3)ccn2)CCC1
(A) Condition not met

Hello, the source for this data is ChEMBL document CHEMBL5518236, in case you need it.
